Experiment: Human liver microsome stability
Type: in vitro ADME
Details: pooled human liver microsomes 0.5 mg/mL, 1 μM compound, NADPH 1 mM, 37° C., 0-60 min
Here, each record is paired with measured HLM Metabolism t1/2 data.
Write the answer as a number in min, unit excluded.

Example cases with answers are listed next.
>>> reading("C[C@@H]1Cc2nn3c(c2CN1C(=O)c1ccc(Cl)c(C(F)(F)F)c1)C(=O)N([C@H](C)c1ccc([S@@]2(=O)=NCCC2)nc1)C[C@H]3C (relative stereo) [Compound 30A]")
29.7
>>> reading("CC(c1cnc(C(C)(C)O)nc1)N1C[C@@H](C)n2nc3c(c2C1=O)CN(C(=O)c1ccc(Cl)c(C(F)(F)F)c1)[C@H](C)C3 (single isomer, unassigned) [Compound 35A]")
47
>>> reading("CC(c1ccc(C(C)(C)O)nc1)N1C[C@@H](C)n2nc3c(c2C1=O)CN(C(=O)c1ccc(Cl)c(C(F)(F)F)n1)[C@H](C)C3 (single isomer, unassigned) [Compound 62B]")
124

Now turn to the next molecule.
In: Could you please provide reported HLM Metabolism t1/2 for CC(c1ccc(-c2ccn(C)n2)cc1)N1C[C@@H](C)n2nc3c(c2C1=O)CN(C(=O)c1ccc(Cl)c(C#N)c1)[C@H](C)C3 (single isomer, unassigned) [Compound 21B] ? Thanks!
Out: 150

* * *

Assay: Human liver microsome stability
Assay type: in vitro ADME
Conditions: human, pooled human liver microsomes, pH 7.4, pooled human liver microsomes 0.5 mg/mL, 1 μM compound, NADPH 1 mM, 37° C., 0-60 min; read-out: HLM Metabolism t1/2
quantity_kind: half-life at 1 μM

Example cases with answers are listed next.
>>> reading("C[C@@H]1Cc2nn3c(c2CN1C(=O)c1ccc(Cl)c(Cl)c1)C(=O)N([C@@H](C)c1ccc([S@](C)(=N)=O)cc1)C[C@H]3C (relative stereo) [Compound 18C]")
"> 3 h"
>>> reading("C[C@@H]1Cc2nn3c(c2CN1C(=O)c1ccc(Cl)c(Cl)c1)C(=O)N([C@H](C)c1ccc([S@](C)(=N)=O)cc1)C[C@H]3C (relative stereo) [Compound 18A]")
"> 3 h"
>>> reading("CC(c1cnc(C2CC2)cn1)N1C[C@@H](C)n2nc3c(c2C1=O)CN(C(=O)c1ccc(Cl)c(Cl)c1)[C@H](C)C3 (single isomer, unassigned)")
"> 3 h"
>>> reading("CC(c1ccc(S(N)(=O)=O)cc1)N1C[C@@H](C)n2nc3c(c2C1=O)CN(C(=O)c1ccc(Cl)c(Cl)c1)[C@H](C)C3 (single isomer, unassigned) [Compound 16A]")
"> 3 h"
>>> reading("CC(c1cnc(C(F)(F)F)cn1)N1C[C@@H](C)n2nc3c(c2C1=O)CN(C(=O)c1ccc(Cl)c(C#N)c1)[C@H](C)C3 (single isomer, unassigned) [Compound 10B]")
"> 3 h"
>>> reading("CC(c1ccn(CC(C)(C)O)c(=O)c1)N1C[C@@H](C)n2nc3c(c2C1=O)CN(C(=O)c1ccc(Cl)c(C(F)(F)F)c1)[C@H](C)C3 (single isomer, unassigned) [Compound 64A]")
"1.82 h"

In: Could you please provide reported half-life at 1 μM for CC(c1ccn(CC(F)(F)F)n1)N1C[C@@H](C)n2nc3c(c2C1=O)CN(C(=O)c1ccc(Cl)c(C#N)c1)[C@H](C)C3 (single isomer, unassigned) [Compound 42B] ? Thanks!
Out: > 3 h

In: Could you please provide reported half-life at 1 μM for Cc1nnc(C(C)N2C[C@@H](C)n3nc4c(c3C2=O)CN(C(=O)c2ccc(Cl)c(Cl)c2)[C@H](C)C4)o1 (single isomer, unassigned) [Compound 43A] ? Thanks!
Out: > 3 h

In: Could you please provide reported half-life at 1 μM for CC(c1ccc(-n2cncn2)cc1)N1C[C@@H](C)n2nc3c(c2C1=O)CN(C(=O)c1ccc(Cl)c(C#N)c1)[C@H](C)C3 (single isomer, unassigned) [Compound 11A] ? Thanks!
Out: > 3 h

In: Could you please provide reported half-life at 1 μM for CC(c1ncccn1)N1C[C@@H](C)n2nc3c(c2C1=O)CN(C(=O)c1ccc(Cl)c(Cl)c1)[C@H](C)C3 (single isomer, unassigned) [Compound 39A] ? Thanks!
Out: 1.59 h

In: Could you please provide reported half-life at 1 μM for CN=[S@@](C)(=O)c1ccc([C@@H](C)N2C[C@@H](C)n3nc4c(c3C2=O)CN(C(=O)c2ccc(Cl)c(Cl)c2)[C@H](C)C4)cn1 (relative stereo) [Compound 29B] ? Thanks!
Out: > 3 h

In: Could you please provide reported half-life at 1 μM for C[C@@H]1Cc2nn3c(c2CN1C(=O)c1ccc(Cl)c(C(F)(F)F)c1)C(=O)N([C@H](C)c1ccc([S@@](C)(=N)=O)cc1)C[C@H]3C (relative stereo) [Compound 19B] ? Thanks!
Out: > 3 h

In: Could you please provide reported half-life at 1 μM for CC(c1ccc(C2(O)CC2)cc1)N1C[C@@H](C)n2nc3c(c2C1=O)CN(C(=O)c1ccc(Cl)c(C#N)c1)[C@H](C)C3 (single isomer, unassigned) [Compound 14A] ? Thanks!
Out: 1.37 h

In: Could you please provide reported half-life at 1 μM for CC(c1ccc(C(C)(C)O)nc1)N1C[C@@H](C)n2nc3c(c2C1=O)CN(C(=O)c1cc(Cl)c(Cl)cn1)[C@H](C)C3 (single isomer, unassigned) [Compound 57A] ? Thanks!
Out: > 3 h

In: Could you please provide reported half-life at 1 μM for Cc1ncc(C(C)N2C[C@@H](C)n3nc4c(c3C2=O)CN(C(=O)c2ccc(Cl)c(Cl)c2)[C@H](C)C4)cn1 (single isomer, unassigned) ? Thanks!
Out: > 3 h

In: Could you please provide reported half-life at 1 μM for CNC(=O)C1(Oc2ccc(C(C)N3C[C@@H](C)n4nc5c(c4C3=O)CN(C(=O)c3ccc(Cl)c(C#N)c3)[C@H](C)C5)cc2)CC1 (single isomer, unassigned) [Compound 13A] ? Thanks!
Out: 1.88 h

In: Could you please provide reported half-life at 1 μM for CC(c1ccc(C#N)cc1)N1C[C@@H](C)n2nc3c(c2C1=O)CN(C(=O)c1ccc(Cl)c(Cl)c1)[C@H](C)C3 (single isomer, unassigned) [Compound 66A] ? Thanks!
Out: > 3 h

In: Could you please provide reported half-life at 1 μM for CC(c1ccc(C(C)(C)O)nc1)N1C[C@@H](C)n2nc3c(c2C1=O)CN(C(=O)c1ccc(Cl)c(C#N)c1)[C@H](C)C3 (single isomer, unassigned) [Compound 63A] ? Thanks!
Out: > 3 h

In: Could you please provide reported half-life at 1 μM for C[C@@H]1Cc2nn3c(c2CN1C(=O)c1ccc(Cl)c(Cl)c1)C(=O)N([C@H](C)c1ccc([S@@](C)(=N)=O)cc1)C[C@H]3C (relative stereo) [Compound 18B] ? Thanks!
Out: > 3 h

In: Could you please provide reported half-life at 1 μM for C[C@@H]1Cc2nn3c(c2CN1C(=O)c1ccc(Cl)c(C(F)(F)F)c1)C(=O)N([C@H](C)c1ccc([S@](C)(=N)=O)cc1)C[C@H]3C (relative stereo) [Compound 19A] ? Thanks!
Out: > 3 h

In: Could you please provide reported half-life at 1 μM for CC(c1cnn(C(C)C)c(=O)c1)N1C[C@@H](C)n2nc3c(c2C1=O)CN(C(=O)c1ccc(Cl)c(C(F)(F)F)c1)[C@H](C)C3 (single isomer, unassigned) [Compound 53A] ? Thanks!
Out: 1.85 h

* * *

Here, each record is paired with measured half-life at 1 μM data.
Experiment: Human liver microsome stability
Type: in vitro ADME
Settings: human, pooled human liver microsomes, pH 7.4, pooled human liver microsomes 0.5 mg/mL, 1 μM compound, NADPH 1 mM, 37° C., 0-60 min; read-out: HLM Metabolism t1/2
Write the answer as a number in min, unit excluded.

Example cases with answers are listed next.
>>> reading("C[C@@H]1Cc2nn3c(c2CN1C(=O)c1ccc(Cl)c(C#N)c1)C(=O)N([C@@H](C)c1ccc(OC(F)F)cc1)C[C@@H]3C (relative stereo) [Compound 1B]")
36.7
>>> reading("CN=[S@@](C)(=O)c1ccc([C@H](C)N2C[C@@H](C)n3nc4c(c3C2=O)CN(C(=O)c2ccc(Cl)c(Cl)c2)[C@H](C)C4)cn1 (relative stereo) [Compound 29D]")
74.8

In: Could you please provide reported half-life at 1 μM for C[C@@H]1Cc2nn3c(c2CN1C(=O)c1ccc(Cl)c(C#N)c1)C(=O)N([C@H](C)c1ccc(OC(F)F)cc1)C[C@@H]3C (relative stereo) [Compound 1A] ? Thanks!
Out: 14.1

* * *

Here, each record is paired with measured HLM Metabolism t1/2 data.
Experiment: Human liver microsome stability
Format: in vitro ADME
Conditions: pooled human liver microsomes 0.5 mg/mL, 1 μM compound, NADPH 1 mM, 37° C., 0-60 min
Write the answer as a number in h, unit excluded.

Example cases with answers are listed next.
>>> reading("CC(c1ccccn1)N1C[C@@H](C)n2nc3c(c2C1=O)CN(C(=O)c1ccc(Cl)c(Cl)c1)[C@H](C)C3 (single isomer, unassigned) [Compound 65B]")
2.02
>>> reading("Cc1nnnn1-c1ccc(C(C)N2C[C@@H](C)n3nc4c(c3C2=O)CN(C(=O)c2ccc(Cl)c(Cl)c2)[C@H](C)C4)cn1 (single isomer, unassigned) [Compound 27B]")
1.39
>>> reading("CC(c1nnc(C2CC2)o1)N1C[C@@H](C)n2nc3c(c2C1=O)CN(C(=O)c1ccc(Cl)c(Cl)c1)[C@H](C)C3 (single isomer, unassigned) [Compound 44B]")
2.22
>>> reading("CC(c1ccc(-n2cncn2)nc1)N1C[C@@H](C)n2nc3c(c2C1=O)CN(C(=O)c1ccc(Cl)c(Cl)c1)[C@H](C)C3 (single isomer, unassigned)")
2.08
>>> reading("CC(c1ccc(N2CCCC2=O)cc1)N1C[C@@H](C)n2nc3c(c2C1=O)CN(C(=O)c1ccc(Cl)c(C#N)c1)[C@H](C)C3 (single isomer, unassigned) [Compound 9B]")
1.83

In: Could you please provide reported HLM Metabolism t1/2 for CC(c1cc(F)ccn1)N1C[C@@H](C)n2nc3c(c2C1=O)CN(C(=O)c1ccc(Cl)c(Cl)c1)[C@H](C)C3 (single isomer, unassigned) [Compound 32B] ? Thanks!
Out: 2.23

Attribution: patent US20240287070A1
